Assay: Thermostability (Tm, Tonset, Tagg) by Nanotemper DSF
Type: physicochemical
Set-up: key: temperatures in °C
Conditions: Replicate 1
Tagg overview

{"molecule": "SDAB22110-4-3-H02: anti-Fel d1 VHH clone, SEQ ID NO: 57 (protein) VHH: QLQLVESGGGLVQPGGSLRLSCEASGFTFKYYTMSWYRQAPGKERELVATITNGDRTNYADSVKGRFTISRDNAKNTLYLQMNSLKPYDTAVYYCNRHLPLLQIWGQGTQVTVSS", "Tagg": 42.24}
{"molecule": "SDAB22110-4-3-G08: anti-Fel d1 VHH clone, SEQ ID NO: 56 (protein) VHH: DVQLVESGGGLVQPGGSLRLSCAASGFTFSLYYMSWYRQVPGKERELVATITSGTHATTYADSVKGRFTISRDNAKNTVSLQMNSLKREDTGVYYCKRTNAGQDPWGQGTQVTVSS", "Tagg": 31.71}
{"molecule": "SDAB22110-1-1-E4: anti-Fel d1 VHH clone, SEQ ID NO: 51 (protein) VHH: QLQLVESGGGLVQPGGSLRLSCTASGFTFSTAGTSWYRQSPGKARKLVAELSRIGGIANYADSVKGRFTISRDNTRNTVYLQMNSLKPEDTAVYYCKVVTNRNYGFTYWGQGTQVTVSS", "Tagg": 39.62}
{"molecule": "SDAB22110-3-2-H08: anti-Fel d1 VHH clone, SEQ ID NO: 53 (protein) VHH: QVQLVESGGGLVQPGGSLRLSCAASGFTFSRKGMSWYRQVPGKEREWVARIYSTGEKTDYADSVKGRFTISRDNAKNMVYLDMNSLKPEDTAVYYCKAWGYEYWNQGTQVTVSS", "Tagg": 42.41}

Hey, just so you know, these numbers are from patent US20240352105A1.
